These entries and their values trace back to ChEMBL document CHEMBL3739314.

procedure.text: Inhibition of Dengue virus serotype-2 NS2B-NS3 protease using 2-Abz-Nle-Lys-Arg-Arg-Ser-(3-NO2)-Tyr-NH2 as substrate preincubated with protein for 15 mins followed by substrate addition measured for 15 mins by FRET assay
Design: species or system dengue virus type 2
readout.label: IC50

Q: Could you tell me which IC50 is on file for N=C(N)NCCC[C@H](NC(=O)c1sccc1-n1cccc1)C(=O)N[C@@H](CCCCN)C(=O)N[C@@H](C(N)=O)c1ccc(OCc2ccccc2)cc1 ?
Ans: 0.322 µM

Q: Could you tell me which IC50 is on file for N=C(N)NCCC[C@H](NC(=O)c1nccs1)C(=O)N[C@@H](CCCCN)C(=O)N[C@@H](C(N)=O)c1ccc(OCc2ccccc2)cc1 ?
Ans: 0.099 µM

Q: Could you tell me which IC50 is on file for N=C(N)NCCC[C@H](NC(=O)c1cccnc1)C(=O)N[C@@H](CCCCN)C(=O)N[C@@H](C(N)=O)c1ccc(OCc2ccccc2)cc1 ?
Ans: 0.262 µM
